Target: Gelatinase (MMP-2) (Homo sapiens)
Sequence (P08253 110-660, species assumed): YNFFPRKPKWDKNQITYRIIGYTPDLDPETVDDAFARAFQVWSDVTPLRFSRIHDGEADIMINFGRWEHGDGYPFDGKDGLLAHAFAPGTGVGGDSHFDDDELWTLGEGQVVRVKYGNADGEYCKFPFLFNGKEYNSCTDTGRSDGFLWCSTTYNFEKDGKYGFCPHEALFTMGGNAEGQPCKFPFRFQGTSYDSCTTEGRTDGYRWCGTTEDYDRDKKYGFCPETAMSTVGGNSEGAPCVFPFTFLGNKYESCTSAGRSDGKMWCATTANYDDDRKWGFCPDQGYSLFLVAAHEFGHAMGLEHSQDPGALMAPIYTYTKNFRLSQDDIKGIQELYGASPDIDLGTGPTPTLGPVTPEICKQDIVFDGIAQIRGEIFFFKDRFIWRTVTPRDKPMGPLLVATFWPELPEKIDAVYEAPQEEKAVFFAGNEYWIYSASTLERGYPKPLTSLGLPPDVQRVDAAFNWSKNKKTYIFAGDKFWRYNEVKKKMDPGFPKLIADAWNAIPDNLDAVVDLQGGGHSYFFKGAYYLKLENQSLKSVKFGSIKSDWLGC
Experiment: Gelatinase (MMP-2) inhibitory activity, fluorogenic peptide substrate cleavage
Assay type: biochemical
Details: read-out: MMP02 IC50
pIC50: −log10 of the molar value.
READOUT_NAME: pIC50

Solved entries (count: 4):
COMPOUND: C#Cc1ccc(C(=O)c2ccc(Cl)c(S(N)(=O)=O)c2)cc1 [Example 31]
pIC50: 4.98

COMPOUND: CCOC(=O)N1CCc2[nH]c3cc(C(=O)c4ccc(Cl)c(S(N)(=O)=O)c4)ccc3c2C1 [Example 103]
pIC50: 6.07

COMPOUND: Cc1cccc(C(=O)c2ccc(Cl)c(S(N)(=O)=O)c2)c1 [Example 24]
pIC50: 5.04

COMPOUND: COc1ccc(C(=O)c2cc(F)c(F)c(S(N)(=O)=O)c2)cc1 [Example 4]
pIC50: 5.33

(1) COc1ccc(C(=O)c2ccc(Cl)c(S(=O)(=O)NCCc3ccc(F)cc3)c2)cc1 [Example 13]
(2) NS(=O)(=O)c1cc(C(=O)c2ccc(OC(F)(F)F)cc2)ccc1Cl [Example 25]
[ask] Dear colleague, could you let me know whether 1 or 2 has the lower recorded pIC50? Thanks. State the label of the item chosen.
[reply] 1

(A) NS(=O)(=O)c1cc(C(=O)c2ccc(Nc3ccccc3)cc2)ccc1Cl [Example 92]
(B) Cc1cc(-c2c[nH]c3cc(C(=O)c4ccc(C)c(S(N)(=O)=O)c4)ccc23)ccn1 [Example 147]
(C) NS(=O)(=O)c1cc(C(=O)c2ccc(N3CC=CC3)cc2)ccc1Cl [Example 81]
[ask] // ascending sort on recorded pIC50 Returns: the labels listed in the requested order.
[reply] A, B, C

(I) Cc1noc(C)c1-c1c[nH]c2cc(C(=O)c3ccc(Cl)c(S(N)(=O)=O)c3)ccc12 [Example 133]
(II) CC(=O)Nc1cccc(-c2ccc(C(=O)c3ccc(Cl)c(S(N)(=O)=O)c3)cc2)c1 [Example 70]
[ask] Of I and II , which carries the smaller reported pIC50 figure? Indicate your choice by writing its label.
[reply] I

The measurements presented in this section are drawn from patent US20130096105A1.
